Hey, just so you know, these numbers are from patent US8927500B2.

- test target: MDM2 (Homo sapiens)
- Sequence (Q00987 1-125): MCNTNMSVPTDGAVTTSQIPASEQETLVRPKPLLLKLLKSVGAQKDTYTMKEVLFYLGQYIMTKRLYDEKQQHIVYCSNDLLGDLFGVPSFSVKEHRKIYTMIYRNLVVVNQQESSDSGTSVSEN
- assay summary: Competitive fluorescence polarization assay for MDM2
- Assay type: binding
- conditions: competitive FP assay, MDM2; read-out: Ki (MDM2)
Where a SMILES comes first, the peptide text is derived from it. Bridges are numbered along the chain shown (N, C = ends). [ ]: non-standard residue; d: D form. Phe(4-COOH) = N[C@@H](Cc1ccc(C(=O)O)cc1)C(=O)O; R8 = C=CCCCCCC[C@@](C)(N)C(=O)O; Cha = N[C@@H](CC1CCCCC1)C(=O)O; Cba = N[C@@H](CC1CCC1)C(=O)O; S5 = C=CCCC[C@](C)(N)C(=O)O; Nle = CCCC[C@H](N)C(=O)O; Ac3c = NC1(C(=O)O)CC1
Give Ki for every item shown.

Observe how each entry below is paired with its result.
[[record]]
compound = "CC[C@H](C)[C@H](NC(C)=O)C(=O)N[C@H](C(=O)N[C@@H](Cc1ccccc1)C(=O)N[C@]1(C)CCCCCCC=CCCC[C@@](C)(C(=O)N[C@@H](C)C(=O)N[C@@H](C)C(=O)N[C@H](C(=O)N[C@H](C)C(N)=O)[C@@H](C)CC)NC(=O)[C@H](CC(C)C)NC(=O)[C@H](CCC(N)=O)NC(=O)[C@H](C(C)C)NC(=O)[C@H](Cc2c[nH]c3ccccc23)NC(=O)[C@H](Cc2ccc(O)cc2)NC(=O)[C@H](Cc2ccccc2)NC1=O)[C@@H](C)O [compound 177] (Ac-ITF[R8]FYWVQL[S5]AAI[dA]-NH2; staple 4-11)"
recorded_result = "< 10 nM"

[[record]]
compound = "CC(=O)N[C@@H](CC(C)C)C(=O)N[C@H](C(=O)N[C@@H](Cc1ccccc1)C(=O)N[C@]1(C)CCCCCCC=CCCC[C@@](C)(C(=O)N[C@@H](C)C(=O)N[C@@H](C)C(=O)N[C@@H](C)C(=O)N[C@H](C)C(N)=O)NC(=O)[C@H](CC(C)C)NC(=O)[C@H](CCC(N)=O)NC(=O)[C@H](C)NC(=O)[C@H](Cc2c[nH]c3ccccc23)NC(=O)[C@H](Cc2ccc(O)cc2)NC(=O)[C@H](CCC(=O)O)NC1=O)[C@@H](C)O [compound 586] (Ac-LTF[R8]EYWAQL[S5]AAA[dA]-NH2; staple 4-11)"
recorded_result = "< 10 nM"

[[record]]
compound = "CC[C@H](C)[C@H](NC(=O)[C@H](C)NC(=O)[C@H](C)NC(=O)[C@]1(C)CCCC=CCCCCCC[C@@](C)(NC(=O)[C@H](Cc2ccccc2)NC(=O)[C@@H](NC(=O)[C@H](CC(C)C)NC(C)=O)[C@@H](C)O)C(=O)N[C@@H](C)C(=O)N[C@@H](Cc2ccc(C(=O)O)cc2)C(=O)N[C@@H](Cc2c[nH]c3ccccc23)C(=O)N[C@@H](C)C(=O)N[C@@H](CCC(N)=O)C(=O)N[C@@H](CC2CCC2)C(=O)N1)C(=O)N[C@H](C)C(N)=O [compound 267] (Ac-LTF[R8]A[Phe(4-COOH)]WAQ[Cba][S5]AAI[dA]-NH2; staple 4-11)"
recorded_result = "< 10 nM"


Could you report Ki for every entry in the following list?
1. CCCC[C@H](NC(=O)[C@H](C)NC(=O)[C@H](C)NC(=O)[C@]1(C)CCCC=CCCCCCC[C@@](C)(NC(=O)[C@H](Cc2ccc(F)c(F)c2)NC(=O)[C@@H](NC(=O)[C@H](CC(C)C)NC(C)=O)[C@@H](C)O)C(=O)N[C@@H](C)C(=O)N[C@@H](Cc2ccc(O)cc2)C(=O)N[C@@H](Cc2c[nH]c3ccccc23)C(=O)N[C@@H](C)C(=O)N[C@@H](CCC(N)=O)C(=O)N[C@@H](CCC(C)C)C(=O)N1)C(=O)N[C@@H](C)C(N)=O (single isomer, unassigned) [compound 308]
2. CC(=O)N[C@@H](CC(C)C)C(=O)N[C@H](C(=O)N[C@@H](Cc1ccccc1)C(=O)N[C@]1(C)CCCCCCC=CCCC[C@@](C)(C(=O)N[C@@H](C)C(=O)N[C@@H](C)C(=O)NC(C)(C)C(=O)N[C@H](C(N)=O)C(C)C)NC(=O)[C@H](CC(C)C)NC(=O)[C@H](CCC(N)=O)NC(=O)[C@H](C)NC(=O)[C@H](Cc2c[nH]c3ccccc23)NC(=O)[C@H](Cc2ccc(O)cc2)NC(=O)[C@H](C)NC1=O)[C@@H](C)O (single isomer, unassigned) [compound 23]
3. CC(=O)N[C@@H](CC(C)C)C(=O)N[C@H](C(=O)N[C@@H](Cc1ccccc1)C(=O)N[C@]1(C)CCCCCCC=CCCC[C@@](C)(C(=O)N[C@@H](CO)C(=O)N[C@H](C(=O)N[C@@H](CO)C(N)=O)C(C)C)NC(=O)[C@H](CC(C)C)NC(=O)[C@H](CCC(N)=O)NC(=O)[C@H](C)NC(=O)[C@H](Cc2c[nH]c3ccccc23)NC(=O)[C@H](Cc2ccc(O)cc2)NC(=O)[C@H](C)NC1=O)[C@@H](C)O [compound 121] (Ac-LTF[R8]AYWAQL[S5]SVS-NH2; staple 4-11)
4. CC(=O)N[C@@H](Cc1ccccc1)C(=O)N[C@]1(C)CCCCCCC=CCCC[C@@](C)(C(=O)N[C@@H](C)C(=O)N[C@@H](C)C(=O)N[C@@H](CC2CCCCC2)C(N)=O)NC(=O)[C@H](CC(C)C)NC(=O)C2(CC2)NC(=O)[C@H](CCC(=O)O)NC(=O)[C@H](Cc2c[nH]c3ccccc23)NC(=O)[C@H](Cc2ccc(O)cc2)NC(=O)[C@H](C)NC1=O [compound 21] (Ac-F[R8]AYWE[Ac3c]L[S5]AA[Cha]-NH2; staple 2-9)
5. CCCC[C@H](NC(=O)[C@H](C)NC(=O)[C@H](C)NC(=O)[C@]1(C)CCCC=CCCCCCC[C@@](C)(NC(=O)[C@H](Cc2ccccc2)NC(=O)[C@@H](NC(=O)[C@H](CC(C)C)NC(C)=O)[C@@H](C)O)C(=O)N[C@@H](CCC(=O)O)C(=O)N[C@@H](Cc2ccc(O)cc2)C(=O)N[C@@H](Cc2c[nH]c3ccccc23)C(=O)N[C@@H](C)C(=O)N[C@@H](CCC(N)=O)C(=O)N[C@@H](CC(C)C)C(=O)N1)C(=O)N[C@@H](C)C(=O)N[C@@H](C)C(N)=O [compound 377] (Ac-LTF[R8]EYWAQL[S5]AA[Nle]AA-NH2; staple 4-11)

Ans:
10 to 100 nM
10 to 100 nM
< 10 nM
10 to 100 nM
< 10 nM
